For each of the compounds below, state its residual activity.
# target.desc: Mitogen-activated protein kinase 13 (Homo sapiens)
# condition.notes: at 1 µM
Supply the numeric figure in %, leaving out any unit text.

input: Returns the measured residual activity for the input compound. Input: O=C1c2ccccc2-c2nc3nnnn3nc21
output: 119

input: O=[N+]([O-])/C=C/c1ccc2c(c1)OCO2 , same question.
output: 103

input: Similarly, O=C1Nc2ccc3ncsc3c2/C1=C/c1c[nH]cn1 ?
output: 62

input: Entry C[S+]([O-])c1ccc(-c2nc(-c3ccc(F)cc3)c(-c3ccncc3)[nH]2)cc1 (stereo not given) please
output: 111

input: Ok, now COc1cc2ncnc(Nc3ccc(OCc4ccccc4)cc3)c2cc1OC
output: 127

----------
# target.desc: Receptor-type tyrosine-protein kinase FLT3 (Homo sapiens)
# condition.notes: at 1 µM
Param threshold (40%) applies to residual activity; output Yes when value >= threshold, No when value < threshold.

input: Does the reported residual activity for CCn1cnc2c(Nc3cccc(Cl)c3)nc(N[C@@H]3CCCC[C@@H]3N)nc21 fall at or above the 40% mark?
output: No

input: What about this compound? N/C(=N\[N+](=O)[O-])N/N=C\c1ccc(-c2cccc([N+](=O)[O-])c2)o1
output: Yes

input: Same lookup for O=C1Nc2ccc3ncsc3c2/C1=C/c1c[nH]cn1 , please.
output: No

input: Subsequent entry: COc1ccc2c(c[n+](C)c3c4cc5c(cc4ccc23)OCO5)c1OC
output: Yes

----------
# target.desc: Tyrosine-protein kinase ITK/TSK (Homo sapiens)
# condition.notes: at 10 µM
parameter: residual activity (%)
Write down the numeric answer in % and omit the unit.

input: May I ask what residual activity has been recorded for O=[N+]([O-])/C=C/c1ccc2c(c1)OCO2 ?
output: 100

input: Could you do the same for O=C1Nc2ccc3ncsc3c2/C1=C/c1c[nH]cn1 , please?
output: 21

input: Repeat for the following compound: COc1ccc2c(c1)/C(=C/c1cnc[nH]1)C(=O)N2
output: 42

input: Try the compound CC(C)(C)c1cc(C=C(C#N)C#N)cc(Br)c1O
output: 104

input: Can you handle COc1cc2ncnc(Nc3ccc(OCc4ccccc4)cc3)c2cc1OC next?
output: 99

input: // same read-out, input: COc1cc(OC)c(/C=C2\C(=O)Nc3ccccc32)c(OC)c1
output: 93

input: What do we get for O=c1[nH]c2ccccc2n1C1CCN(Cc2ccc(-c3nc4cc5[nH]cnc5cc4nc3-c3ccccc3)cc2)CC1 ?
output: 95

input: What do we get for COc1ccc2c(c[n+](C)c3c4cc5c(cc4ccc23)OCO5)c1OC ?
output: 91

input: Same lookup for CCn1cnc2c(Nc3cccc(Cl)c3)nc(N[C@@H]3CCCC[C@@H]3N)nc21 , please.
output: 39

----------
# target.desc: Testis-specific serine/threonine-protein kinase 2 (Homo sapiens) (UniProt Q96PF2)
# Sequence (Q96PF2 whole entry): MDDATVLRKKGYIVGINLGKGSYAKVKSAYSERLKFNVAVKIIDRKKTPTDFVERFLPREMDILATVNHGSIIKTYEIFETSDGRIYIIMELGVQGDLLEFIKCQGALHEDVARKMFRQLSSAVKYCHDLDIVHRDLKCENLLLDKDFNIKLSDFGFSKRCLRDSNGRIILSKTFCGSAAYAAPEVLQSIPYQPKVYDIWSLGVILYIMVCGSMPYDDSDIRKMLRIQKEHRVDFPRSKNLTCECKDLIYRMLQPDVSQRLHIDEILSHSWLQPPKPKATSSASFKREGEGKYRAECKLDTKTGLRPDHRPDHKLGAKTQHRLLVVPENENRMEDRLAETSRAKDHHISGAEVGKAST
# condition.notes: at 10 µM
Provide the reported residual activity of each item.
Just the number please, in %, no unit attached.

input: Quick check: residual activity on Testis-specific serine/threonine-protein kinase 2 (Homo sapiens) (UniProt Q96PF2), item CCn1cnc2c(Nc3cccc(Cl)c3)nc(N[C@@H]3CCCC[C@@H]3N)nc21 ?
output: 58

input: Now try COc1cc(OC)c(/C=C2\C(=O)Nc3ccccc32)c(OC)c1 .
output: 99

input: Query O=C1NC(=O)c2c1c1c3ccccc3n3c1c1c2c2ccccc2n1C1CCC3O1 next
output: 96

input: Another compound to look at: COC(=O)[C@@]1(O)C[C@H]2O[C@]1(C)n1c3ccccc3c3c4c(c5c6ccccc6n2c5c31)C(=O)NC4
output: 0
